# assayed_system: CPSF160FL;WDR33 M1-K410;CPSF30FL;Fip1FL (Homo sapiens;Homo sapiens;Homo …, UniProt Q10570;Q9C0J8;O95639-3;Q6UN15-4 1-1443;1-410;1-243;1-378, |||)
# Sequence (Q10570 whole entry, chain 1 of 4): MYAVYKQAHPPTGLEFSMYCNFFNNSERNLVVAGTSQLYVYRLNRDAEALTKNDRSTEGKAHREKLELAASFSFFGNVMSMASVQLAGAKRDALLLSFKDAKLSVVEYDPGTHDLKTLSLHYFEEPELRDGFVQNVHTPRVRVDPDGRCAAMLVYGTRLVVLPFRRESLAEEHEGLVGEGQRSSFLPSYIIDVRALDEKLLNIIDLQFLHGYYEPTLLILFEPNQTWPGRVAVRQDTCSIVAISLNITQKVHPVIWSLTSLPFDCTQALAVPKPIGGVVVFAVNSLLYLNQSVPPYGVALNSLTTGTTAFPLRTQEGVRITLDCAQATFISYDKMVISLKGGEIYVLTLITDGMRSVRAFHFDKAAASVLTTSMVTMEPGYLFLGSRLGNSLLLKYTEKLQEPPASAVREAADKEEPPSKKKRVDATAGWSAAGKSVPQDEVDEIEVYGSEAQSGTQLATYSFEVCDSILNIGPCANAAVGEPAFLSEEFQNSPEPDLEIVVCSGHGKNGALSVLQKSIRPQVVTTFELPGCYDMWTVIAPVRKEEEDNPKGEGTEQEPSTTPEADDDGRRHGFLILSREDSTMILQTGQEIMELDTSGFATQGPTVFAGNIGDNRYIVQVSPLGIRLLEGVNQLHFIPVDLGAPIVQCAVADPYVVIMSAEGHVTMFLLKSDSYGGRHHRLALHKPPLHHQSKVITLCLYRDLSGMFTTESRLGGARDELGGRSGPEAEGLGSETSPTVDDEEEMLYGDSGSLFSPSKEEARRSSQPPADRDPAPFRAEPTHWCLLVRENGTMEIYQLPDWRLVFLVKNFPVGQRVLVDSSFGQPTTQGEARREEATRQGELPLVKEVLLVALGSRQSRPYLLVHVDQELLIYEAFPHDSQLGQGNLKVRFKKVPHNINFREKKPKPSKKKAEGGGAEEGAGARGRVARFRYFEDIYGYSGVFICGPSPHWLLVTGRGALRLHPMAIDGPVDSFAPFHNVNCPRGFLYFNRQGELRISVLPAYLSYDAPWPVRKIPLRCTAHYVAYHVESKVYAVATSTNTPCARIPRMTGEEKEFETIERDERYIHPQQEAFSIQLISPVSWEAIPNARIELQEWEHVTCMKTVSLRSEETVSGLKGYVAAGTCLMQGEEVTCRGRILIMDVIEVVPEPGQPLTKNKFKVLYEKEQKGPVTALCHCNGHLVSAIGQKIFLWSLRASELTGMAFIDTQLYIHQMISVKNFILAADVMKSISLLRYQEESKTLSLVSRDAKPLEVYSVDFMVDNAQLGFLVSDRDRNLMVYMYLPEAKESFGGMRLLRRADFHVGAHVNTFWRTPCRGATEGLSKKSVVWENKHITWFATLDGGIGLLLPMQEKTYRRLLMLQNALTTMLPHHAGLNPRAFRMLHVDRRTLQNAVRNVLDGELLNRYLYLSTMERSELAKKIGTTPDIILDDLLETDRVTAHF
# Sequence (Q9C0J8 1-410, chain 2 of 4): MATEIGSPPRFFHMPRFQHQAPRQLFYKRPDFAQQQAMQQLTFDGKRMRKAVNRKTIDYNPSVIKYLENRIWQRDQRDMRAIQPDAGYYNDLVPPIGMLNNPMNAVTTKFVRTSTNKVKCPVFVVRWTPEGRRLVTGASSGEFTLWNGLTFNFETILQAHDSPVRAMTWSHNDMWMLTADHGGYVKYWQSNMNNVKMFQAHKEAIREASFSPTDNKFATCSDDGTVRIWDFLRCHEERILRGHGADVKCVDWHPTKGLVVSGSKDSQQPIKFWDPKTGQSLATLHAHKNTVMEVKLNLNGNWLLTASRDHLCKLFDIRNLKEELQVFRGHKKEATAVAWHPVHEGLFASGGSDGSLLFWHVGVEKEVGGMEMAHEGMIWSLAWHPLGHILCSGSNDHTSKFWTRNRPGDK
# Sequence (O95639 other isoform, or with tags, fused parts or gaps |||, chain 3 of 4): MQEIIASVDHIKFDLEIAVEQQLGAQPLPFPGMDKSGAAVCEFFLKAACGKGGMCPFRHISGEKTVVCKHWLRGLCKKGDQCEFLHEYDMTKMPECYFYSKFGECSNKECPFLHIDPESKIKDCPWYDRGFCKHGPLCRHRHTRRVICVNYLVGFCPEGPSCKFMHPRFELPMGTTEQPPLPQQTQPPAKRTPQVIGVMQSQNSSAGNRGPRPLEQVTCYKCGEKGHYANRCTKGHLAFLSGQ
# Sequence (Q6UN15 other isoform, or with tags, fused parts or gaps |||, chain 4 of 4): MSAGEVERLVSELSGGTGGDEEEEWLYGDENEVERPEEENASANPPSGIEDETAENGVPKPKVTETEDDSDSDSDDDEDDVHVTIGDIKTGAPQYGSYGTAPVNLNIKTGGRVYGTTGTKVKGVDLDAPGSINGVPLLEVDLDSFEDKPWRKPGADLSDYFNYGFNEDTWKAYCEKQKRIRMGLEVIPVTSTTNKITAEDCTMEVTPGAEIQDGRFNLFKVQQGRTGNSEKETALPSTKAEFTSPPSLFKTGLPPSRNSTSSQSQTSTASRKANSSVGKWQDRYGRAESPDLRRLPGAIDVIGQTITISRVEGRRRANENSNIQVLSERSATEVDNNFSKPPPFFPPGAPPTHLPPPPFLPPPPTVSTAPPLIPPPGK
# assay_remarks: fluorescence polarization; two repeats; 20 mM Tris pH 7.5, 150 mM NaCl, 1 mM DTT, 0.05% Tween 20, 25 C, 0.1 nM labelled RNA
# cond: protein: recombinant;recombinant;recombinant;recombinant; tags: His6 (438B vector; Ni-NTA and Streptactin purified);;; copies: 1;1;1;1; label: 5' Atto532
reported_endpoint: Kd (nM)
Numbers only, in nM.

Lab note: CACACAAGAAAGGCAA (ssRNA) [L3 PAS RNA mutant (AAGAAA)] gave Kd of 120
